molecular target: human CXCR4 (Homo sapiens, UniProt P61073); experiment: CXCR4/CXCL12 binding, HTRF format, single concentration (Example 23); parameters: host or cells: HEK293 (Tag-lite CXCR4 cells, frozen aliquots, transient expression); settings: 15 nM CXCR4R fluorescent probe, 3 hours, HEK293 Tag-lite CXCR4 cells
Sequence (P61073 whole entry): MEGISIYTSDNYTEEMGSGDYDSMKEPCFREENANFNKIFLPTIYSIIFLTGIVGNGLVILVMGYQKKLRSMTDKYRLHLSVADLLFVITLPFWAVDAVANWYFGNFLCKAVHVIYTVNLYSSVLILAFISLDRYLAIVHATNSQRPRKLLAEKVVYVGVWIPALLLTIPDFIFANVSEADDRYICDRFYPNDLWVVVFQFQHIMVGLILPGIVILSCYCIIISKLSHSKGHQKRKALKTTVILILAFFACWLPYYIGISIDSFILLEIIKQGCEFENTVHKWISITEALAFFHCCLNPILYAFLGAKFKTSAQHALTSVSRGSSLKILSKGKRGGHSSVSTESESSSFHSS
Peptide text beside a SMILES is read from it.
# Percent Inhibition of CXCR4/CXCL12 Binding (400 nM peptide) listing for each entry below
VALUE KIND: Percent Inhibition of CXCR4/CXCL12 Binding (400 nM peptide) (%)

COMPOUND	EXPERIMENTAL VALUE
CC(C)C[C@H](NC(=O)[C@H](CO)NC(=O)[C@H](CO)NC(=O)[C@H](CCCNC(=N)N)NC(=O)[C@@H](NC(=O)[C@H](CO)NC(=O)[C@H](Cc1c[nH]cn1)NC(=O)[C@H](Cc1c[nH]cn1)NC(=O)[C@H](Cc1ccc(O)cc1)NC(=O)[C@H](CCCNC(=N)N)NC(=O)[C@H](CCC(=O)O)NC(=O)[C@@H](N)CC(C)C)C(C)C)C(=O)N[C@@H](CCCNC(=N)N)C(=O)N1CCC[C@H]1C(=O)N[C@@H](Cc1ccc(O)cc1)C(=O)O [compound 19] (H-LERYHHSVRSSLRPY-OH; N-terminus and C-terminus assumed)	44
CC(C)C[C@H](NC(=O)[C@H](CO)NC(=O)[C@H](CO)NC(=O)[C@H](CCCNC(=N)N)NC(=O)[C@@H](NC(=O)[C@H](CO)NC(=O)[C@H](Cc1c[nH]cn1)NC(=O)[C@H](Cc1c[nH]cn1)NC(=O)[C@H](Cc1ccc(O)cc1)NC(=O)[C@H](CCCNC(=N)N)NC(=O)[C@H](CCCNC(=N)N)NC(=O)[C@@H](N)CC(C)C)C(C)C)C(=O)O [compound 28] (H-LRRYHHSVRSSL-OH; N-terminus and C-terminus assumed)	12
